biological target: Cytochrome P450 2D6 (Homo sapiens) (UniProt P10635); assay: Cytochrome panel assay with activity outcomes; settings: recombinant CYP, pro-luciferin dealkylation, luminescence, p450-cyp2d6; series mostly up to 57.1 µM
Sequence (P10635 whole entry, looked up): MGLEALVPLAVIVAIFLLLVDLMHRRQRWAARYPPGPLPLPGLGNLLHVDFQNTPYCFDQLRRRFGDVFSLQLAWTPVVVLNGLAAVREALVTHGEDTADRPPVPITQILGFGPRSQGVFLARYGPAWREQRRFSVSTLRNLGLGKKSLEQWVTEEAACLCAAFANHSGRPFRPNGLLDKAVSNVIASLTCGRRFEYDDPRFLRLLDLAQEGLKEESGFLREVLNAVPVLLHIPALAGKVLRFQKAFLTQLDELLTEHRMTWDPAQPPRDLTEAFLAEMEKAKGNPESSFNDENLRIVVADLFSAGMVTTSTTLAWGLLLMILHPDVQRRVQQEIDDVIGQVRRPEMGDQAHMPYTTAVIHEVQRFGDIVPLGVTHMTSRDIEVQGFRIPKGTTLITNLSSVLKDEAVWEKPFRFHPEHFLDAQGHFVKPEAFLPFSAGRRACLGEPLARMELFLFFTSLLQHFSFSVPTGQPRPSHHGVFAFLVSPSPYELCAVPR
Out of some 16,000 compounds screened, about 2,600 (16%) were called active. Roughly 20% stayed inconclusive and do not appear here. Calls follow the shape of the dose curve; as a rule, active = well fitted curve in the direction sought with a large enough effect; inconclusive = small, poorly fitted or top-dose-only effect, or effect the other way; inactive = no such curve, though single readings can be large or run the other way. A selection follows.
Possible outcomes: YES (active), NO (inactive)

| smiles-input | label |
| --- | --- |
| CC(=O)NCCNc1ccnc(-c2ccccc2C)n1 | NO |
| COc1ccc(NC(=O)CSc2ccc3c4c(cccc24)C(=O)c2ccccc2-3)cc1 | NO |
| COc1ccc2[nH]cc(CCNc3ncncc3-c3ccc(N(C)C)cc3)c2c1 | YES |
| COCCNc1nc(-c2ccccc2C(F)(F)F)nc2ccccc12 | NO |
| CC(=O)NCCNc1nc(-c2ccccc2Cl)nc2ccccc12 | YES |
| CC(=O)NCCNc1ccnc(-c2ccccc2C(F)(F)F)n1 | NO |
| CNc1ncnc2ccc(-c3cccc(OC)c3)cc12 | YES |
| COCCNc1nc(-c2ccccc2Cl)nc2ccccc12 | NO |
| CC(=O)NCCNc1nc(-c2ccccc2C(F)(F)F)nc2ccccc12 | YES |
| COc1ccc(OC)c(Nc2nc(-c3sc(NC(=O)c4ccccc4)nc3C)cs2)c1 | NO |
| COc1ccccc1-c1nc(NCCNC(C)=O)c2ccccc2n1 | YES |

---

molecular target: Cytochrome P450 2D6 (Homo sapiens) (UniProt P10635); test: Cytochrome panel assay with activity outcomes; details: recombinant CYP, pro-luciferin dealkylation, luminescence, p450-cyp2d6; series mostly up to 57.1 µM
Hit rate of the full screen: of about 16,000 compounds, about 2,600 (16%) were called active. Inconclusive results (about 20%) are left out. The call rests on the fitted dose curve; in most records, active means well fitted curve in the direction sought with a large enough effect; inconclusive means small, poorly fitted or top-dose-only effect, or effect the other way; inactive means no such curve, though single readings can be large or run the other way. These entries were drawn from the full list. Peptide text beside a SMILES is read from it. * marks the point of attachment. PhAc = O=C(Cc1ccccc1)*; OBn = c1ccc(CO*)cc1
Possible outcomes: active, inactive

| molecule | label |
| --- | --- |
| O=C(CNC(=O)c1cccs1)NCC(=O)OCc1ccc(Cl)cc1 | active |
| O=C(CNC(=O)c1cccs1)NCC(=O)OCc1ccc(Cl)cc1Cl | active |
| COc1ccc(CNc2ncncc2-c2ccccc2C)c(OC)c1 | active |
| COc1ccc(-n2c(=O)c(-c3ccc(F)cc3)nc3cnc(OC)nc32)cc1 | inactive |
| COc1ccc(C(=O)N2CCC3(CCCN(C)C3)CC2)cc1 | inactive |
| COc1ccc(C(=O)N2CCC[C@@]3(CCN(Cc4ccccc4)C3)C2)cc1 | active |
| COc1ccc(CNc2ncncc2-c2ccccc2OC)c(OC)c1 | active |
| Cn1sc(NC(=O)c2ccccc2)nc1=O | inactive |
| COc1ccc(CNc2ncncc2-c2ccccc2CN(C)C)c(OC)c1 | active |
| COc1ccc(C(=O)N2CCC[C@@]3(CCN(Cc4ccc(C#N)cc4)C3)C2)cc1 | inactive |
| COc1ccc2[nH]cc(CCNc3ncncc3-c3ccccc3CN(C)C)c2c1 | active |
| Oc1oc(-c2ccccc2)nc1C=Nc1ccccc1 | inactive |
| CC[C@@H]1OC(=O)[C@H](C)[C@H](O[C@@H]2C[C@](C)(OC)[C@H](O)[C@H](C)O2)[C@H](C)[C@H](O[C@@H]2O[C@@H](C)C[C@@H](N(C)C)[C@@H]2O)[C@](C)(O)C[C@H](C)[C@@H]2N[C@H](COCCOC)O[C@H]([C@@H]2C)[C@]1(C)O | inactive |
| O=C(CNC(=O)Cc1ccccc1)NCC(=O)OCc1ccccc1 (PhAc-Gly-Gly-OBn) | inactive |
| CCOC(=O)N1CCN(C(=O)c2ccc3c(=O)n(-c4ccc(OC)cc4)c(=S)[nH]c3c2)CC1 | inactive |
| CC(C)(C)c1ccc(COC(=O)CNC(=O)CNC(=O)Cc2ccccc2)cc1 | inactive |
| COc1ccc(C(=O)N2CCC3(CCCN(CC(C)C)C3)CC2)cc1 | inactive |
| Cc1ccc(S(=O)(=O)N(C)CC(=O)O/N=C(\N)c2ccccn2)cc1 | inactive |
| COc1ccc(C(=O)N2CCC[C@@]3(CCN(C(=O)Nc4ccccc4)C3)C2)cc1 | inactive |
| Cc1cccc(Cn2ncc(Cl)c(Cl)c2=O)c1 | inactive |

---

target: Cytochrome P450 2D6 (Homo sapiens) (UniProt P10635); assay: Cytochrome panel assay with activity outcomes; settings: recombinant CYP, pro-luciferin dealkylation, luminescence, p450-cyp2d6; series mostly up to 57.1 µM
The whole screen tested about 16,000 compounds, of which about 2,600 (16%) were called active. Another 20% or so got no clear call; they are omitted. Calls come from the whole dose curve; as a rule, active = well fitted curve in the direction sought with a large enough effect; inconclusive = small, poorly fitted or top-dose-only effect, or effect the other way; inactive = no such curve, though single readings can be large or run the other way. A selection follows.
Possible outcomes: 1 = active, -1 = inactive

| compound | label |
| --- | --- |
| CCOc1ccc(-n2c(N)c(C(=O)NCc3cccnc3)sc2=S)cc1 | -1 |
| O=C(NCC(c1cccs1)N1CCOCC1)c1ccco1 (centres undefined) | -1 |
| O=c1n(CCCN2CCN(c3cccc(Cl)c3)CC2)nc2ccccn12 | -1 |
| Cc1cc2nc(C)n(CCCN)c2cc1C | -1 |
| CC(NC(=O)Cn1cnc([N+](=O)[O-])n1)c1ccccc1 (centres undefined) | -1 |
| C[C@H](NC(=O)Cn1cncn1)c1ccccc1 | -1 |
| CNC(=O)NC(=S)NC(=O)c1ccc(OC)cc1 | -1 |
| CCOc1ccc(N2CC(C(=O)NCc3cccc(C)c3)CC2=O)cc1 (centres undefined) | -1 |
| Cn1cccc1C(=O)N1CCC2(CC1)CCN(c1ncccn1)CC2 | -1 |
| O=C(NCCNc1ccc([N+](=O)[O-])cc1)c1ccccc1Br | 1 |
| COCCNC(=O)c1cc(-c2cccc(OC)c2)on1 | -1 |
| CCOC(=O)c1c(C)oc2c1c(C=NC1CCS(=O)(=O)C1)c(O)c1ccccc12 (centres undefined) | -1 |
| O=C(O)CCCCCNC(=O)c1ccccc1Br | -1 |
| CN1CCN(NC(=O)CN2C(=O)/C(=C/c3c(Cl)cccc3Cl)SC2=S)CC1 | -1 |
| O=C(O)CCC(=O)N1CCC[C@H]1C(=O)O | -1 |
| CC(=O)SC[C@@H](Cc1ccccc1)C(=O)NCC(=O)OCc1ccccc1 | 1 |
| COc1cccc(Nc2nc(-c3ccc(O)cc3)cs2)c1 | 1 |
| COc1cc(Br)c(C(C)NC(=O)c2cccc(Br)c2)cc1OC (centres undefined) | -1 |
| O=C(N/N=C/c1ccc([N+](=O)[O-])s1)c1ccccc1Br | -1 |
| COc1ccc(N2CCN(C(=O)CSc3nnc4c5cc(C)ccc5n(C)c4n3)CC2)cc1 | -1 |
| CCN1CCN(C(=O)N[C@H](C(=O)N[C@@H]2C(=O)N3[C@@H]2SC(C)(C)[C@@H]3C(=O)O)c2ccccc2)C(=O)C1=O | -1 |
| Cc1ccc(-c2csc(N/N=C/c3ccco3)n2)cc1 | -1 |
| O=C(c1cccc(F)c1)N1CCC2(CCCN(c3ccc(-c4ccccc4)cc3)C2)CC1 | -1 |
| O=C(Nc1cc(C(F)(F)F)ccc1-n1cncn1)c1ccc(Br)cc1 | -1 |
| O=C(O)CNC(=O)[C@@H](CS)Cc1ccccc1 | -1 |
| CCCNC(=O)c1c(C)cc(=O)oc1C | -1 |
| CCc1c(C)nc2ccc(Br)cc2c1Cl | 1 |
| COc1cccc(-c2csc(N3CCN(C(=S)Nc4ccccc4)CC3)n2)c1 | -1 |
| CCCCCCCCCCCCCCSCC(=O)O | -1 |
| Cc1cc2[nH]c(=O)c3ccccc3n2n1 | -1 |
| CCOC(=O)c1sc(NC(C)=O)nc1-c1ccccc1 | -1 |
| Cn1cc(-c2nc3cncnc3n(CCN)c2=O)c2ccccc21 | -1 |
| COc1cc(/C=C/C(=O)O)cc(S(=O)(=O)NCCCO)c1OC | -1 |
| CCN1/C(=C/c2ccc3cccc(C)c3[n+]2CC)Sc2ccccc21 | 1 |
| CCOC(=O)c1ccc2nc(C)c(CCC(C)=O)c(Cl)c2c1 | -1 |
| CN(C(=S)Nc1ccccc1F)C1(c2ccccc2Cl)CCCCC1=O (centres undefined) | -1 |
| Cc1ccccc1C(=O)NC(NCc1ccco1)C(Cl)(Cl)Cl (centres undefined) | -1 |
| COc1ccc(C(C(=O)NC2CCCCC2)N(C(=O)CCCC(=O)Nc2ccccn2)c2ccc3c(c2)OCCO3)cc1 (centres undefined) | -1 |
| COc1cccc(CNCCNC(=O)c2nonc2N)c1 | 1 |
| c1ccc(C(CCN2CC3CCC(CC3)C2)c2ccccc2)cc1 | 1 |
| CO[C@H]1C=CO[C@]2(C)Oc3c(C)c(O)c4c(O)c(c5c(c4c3C2=O)NC2(CCN(CC(C)C)CC2)N=5)=NC(=O)C(C)=CC=C[C@@H](C)[C@@H](O)[C@@H](C)[C@@H](O)[C@@H](C)[C@@H](OC(C)=O)[C@@H]1C | -1 |
| NS(=O)(=O)c1cc(Cl)c(Cl)c(S(N)(=O)=O)c1 | -1 |
| CC(=O)OC[C@@H]1O[C@@H](O/N=C2/C[C@@H](O)[C@@H](O)[C@@H]3[C@@H]4C(=O)N(C5CCCCC5)C(=O)[C@H]4CC[C@H]23)[C@H](OC(C)=O)[C@H](OC(C)=O)[C@@H]1OC(C)=O | 1 |
| CCCN1CNC(=S)N(c2cccc(C)c2C)C1 | -1 |
